# Test system: CCRIS mutagenicity, Ames/micronucleus/aberration tests
# Assay text: CCRIS mutagenicity studies
# Measurement parameters: Test System: AMES SALMONELLA TYPHIMURIUM; Strain/Indicator: TA98; Metabolic Activation: NONE; Method: STANDARD PLATE
Active and inactive are the calls of the source. The rule behind the calls is not given here. Where a SMILES comes first, the peptide text is derived from it.
Bench note: report the call from active, inactive

| Molecule | Subject of test | Class assignment |
| --- | --- | --- |
| C=C(C)C(=O)OCC(C)(C)C | CCRIS mutagenicity, Ames/micronucleus/aberration tests | inactive |
| COC(=O)CCC(=O)OC | CCRIS mutagenicity, Ames/micronucleus/aberration tests | inactive |
| CC(C)CCNc1snc2ccccc12 | CCRIS mutagenicity, Ames/micronucleus/aberration tests | inactive |
| CCC1C(C)=NN=C(c2ccc(OC)c(OC)c2)c2cc(OC)c(OC)cc21 (stereo unspecified) | CCRIS mutagenicity, Ames/micronucleus/aberration tests | inactive |
| NC(=O)/C(=C\c1ccc([N+](=O)[O-])o1)c1ccco1 | CCRIS mutagenicity, Ames/micronucleus/aberration tests | active |

Prompt: Short answer needed: outcome of this test for Cc1ccccc1OCC(O)CNCCOc1ccc(C(N)=O)cc1 (stereo unspecified) ?
Completion: inactive

Prompt: Short answer needed: outcome of this test for CC(C)C[C@H](NC(=O)[C@H](Cc1ccccc1)NC(=O)CNC(=O)CN)C(=O)O (H-GGFL-OH) ?
Completion: inactive

Prompt: Short answer needed: outcome of this test for "CC(=O)Nc1ccc(Oc2ccc(N)cc2)cc1" ?
Completion: inactive

====

# Test system: CCRIS mutagenicity, Ames/micronucleus/aberration tests
# Assay text: CCRIS mutagenicity studies
# Measurement parameters: Test System: AMES SALMONELLA TYPHIMURIUM; Strain/Indicator: TA1537; Metabolic Activation: RAT, LIVER, S-9, AROCLOR 1254; Method: STANDARD PLATE
Activity calls are given as the source filed them. No rule for the calls is given here.
Bench note: report the call from YES (active), NO (inactive)

Solved entries:
| Compound | Class assignment |
| --- | --- |
| O=[N+]([O-])O[C@H]1CO[C@H]2[C@@H]1OC[C@H]2O[N+](=O)[O-] | NO |
| COc1cc2c(c(OC)c1OC)-c1ccc(OC)c(=O)cc1[C@@H](NC(C)=O)CC2 | NO |
| ClNc1nc(NCl)nc(NCl)n1 | NO |
| C1CCC2CCCCC2C1 (configuration not stated) | NO |

Prompt: Short answer needed: outcome of this test for CC1CCC(C(C)C)C(=O)C1 (configuration not stated) ?
Completion: NO

Prompt: Short answer needed: outcome of this test for "CC(C)=CCC1=C(O)c2ccccc2C(=O)C1=O" ?
Completion: NO

Prompt: Short answer needed: outcome of this test for "O=C(O)CN(CCN(CC(=O)O)CC(=O)O)CC(=O)O" ?
Completion: NO

Prompt: Short answer needed: outcome of this test for CC(O)Cc1cc(N)cc([N+](=O)[O-])c1N (configuration not stated) ?
Completion: NO

Prompt: Short answer needed: outcome of this test for "CC(=O)[CH-]C(=O)c1ccccc1.CC(=O)[CH-]C(=O)c1ccccc1.CC[O-].CC[O-].[Ti+4]" ?
Completion: NO

====

# Test system: CCRIS mutagenicity, Ames/micronucleus/aberration tests
# Assay text: CCRIS mutagenicity studies
# Measurement parameters: Test System: AMES SALMONELLA TYPHIMURIUM; Strain/Indicator: TA100; Metabolic Activation: NONE; Method: PREINCUBATION
The source made the active and inactive calls. No rule for the calls is given here.
Bench note: report the call from active, inactive

Solved entries:
| Smiles string | Class assignment |
| --- | --- |
| CCCN(CCC)C(=O)SCC | inactive |
| O=NN(CCCl)C(=O)NC1CCCCC1 | active |
| COc1ccc(/C=N/n2nnc3c([nH]c4ccccc43)c2=O)cc1 | active |

Prompt: Short answer needed: outcome of this test for "COc1ccc(O)cc1" ?
Completion: inactive

Prompt: Short answer needed: outcome of this test for "O=[N+]([O-])c1c2ccccc2cc2ccccc12" ?
Completion: active

Prompt: Short answer needed: outcome of this test for "O=c1cn[nH]c(=O)[nH]1" ?
Completion: inactive

Prompt: Short answer needed: outcome of this test for "CCOc1cc(C=O)ccc1O" ?
Completion: inactive

Prompt: Short answer needed: outcome of this test for "Cc1ccc2nc3c(ccc4ccccc43)c(C)c2c1" ?
Completion: inactive

Prompt: Short answer needed: outcome of this test for "C=CC(=O)NC(C)(C)CC(C)=O" ?
Completion: inactive

Prompt: Short answer needed: outcome of this test for "CC(=O)OCc1ccc(N=Nc2ccccc2COC(C)=O)cc1" ?
Completion: active

====

# Tested on: CCRIS mutagenicity, Ames/micronucleus/aberration tests
# Assay text: CCRIS mutagenicity studies
# Measurement parameters: Test System: AMES SALMONELLA TYPHIMURIUM; Strain/Indicator: TA1535; Metabolic Activation: RAT, LIVER, S-9, AROCLOR 1254; Method: STANDARD PLATE
The source made the active and inactive calls. The rule behind the calls is not given here.
Quantity measured: mutagenic call

Consider the worked cases shown below.
| Compound | Subject of test | Result |
| --- | --- | --- |
| CC(C(=O)O)c1ccc(Oc2nccs2)cc1 (stereo not given) | CCRIS mutagenicity, Ames/micronucleus/aberration tests | inactive; negative |
| O=C(O)O | CCRIS mutagenicity, Ames/micronucleus/aberration tests | inactive; negative |
| CC1CCC(C(C)C)C(=O)C1 (stereo not given) | CCRIS mutagenicity, Ames/micronucleus/aberration tests | inactive; negative |
| Nc1ccc([N+](=O)[O-])c(O)c1 | CCRIS mutagenicity, Ames/micronucleus/aberration tests | inactive; negative |
| CC[C@H]1OC(=O)[C@H](C)[C@@H](O[C@H]2C[C@@](C)(OC)[C@@H](O)[C@H](C)O2)[C@H](C)[C@@H](O[C@@H]2O[C@H](C)C[C@H](N(C)C)[C@H]2O)[C@](C)(O)C[C@@H](C)CN(C)[C@H](C)[C@@H](O)[C@]1(C)O | CCRIS mutagenicity, Ames/micronucleus/aberration tests | inactive; negative |

Prompt: Form field: mutagenic call recorded for "CN(C)CC/C=C1\c2ccccc2COc2ccccc21" with CCRIS mutagenicity, Ames/micronucleus/aberration tests (enter value)
Completion: inactive; negative

Prompt: Form field: mutagenic call recorded for "O=C(O)c1cccc2cccnc12" with CCRIS mutagenicity, Ames/micronucleus/aberration tests (enter value)
Completion: inactive; negative

====

# System: CCRIS mutagenicity, Ames/micronucleus/aberration tests
# Assay text: CCRIS mutagenicity studies
# Measurement parameters: Test System: AMES SALMONELLA TYPHIMURIUM; Strain/Indicator: TA1535; Metabolic Activation: NONE; Method: STANDARD PLATE
Active and inactive are the calls of the source. How the calls were made is not given here.
Bench note: report the call from active, inactive

Solved entries:
| Compound | Class assignment |
| --- | --- |
| O=S(=O)(O)CNc1ccc(N=Nc2cccnc2)cc1 | inactive |
| COC(=O)CCC(=O)OC | inactive |
| C=C1/C(=C\C=C2/CCC[C@]3(C)[C@@H]([C@H](C)CC[C@@H](O)C(C)C)CC[C@@H]23)C[C@@H](O)C[C@@H]1O | inactive |

Prompt: Short answer needed: outcome of this test for "O=C(O)COc1ccc2ccccc2c1" ?
Completion: inactive

Prompt: Short answer needed: outcome of this test for CC1(C)C(C(=O)OC(C#N)c2cccc(Oc3ccccc3)c2)C1(C)C (stereo not given) ?
Completion: inactive

Prompt: Short answer needed: outcome of this test for CCNCC#CC(C)(C)OC(=O)C(O)(c1ccccc1)C1CCCCC1 (stereo not given) ?
Completion: inactive

Prompt: Short answer needed: outcome of this test for "C[C@@H]1O[C@H]1C" ?
Completion: active

Prompt: Short answer needed: outcome of this test for "OC[C@@H](O)[C@@H](O)[C@H](O)[C@H](O)CO" ?
Completion: inactive

Prompt: Short answer needed: outcome of this test for "CCCS(=O)(=O)n1ncc(Cl)c(Cl)c1=O" ?
Completion: inactive

Prompt: Short answer needed: outcome of this test for "ONc1ccc2ccccc2c1" ?
Completion: active

Prompt: Short answer needed: outcome of this test for "CC(C)(C#N)C(C)(C)C#N" ?
Completion: inactive

====

# Test system: CCRIS mutagenicity, Ames/micronucleus/aberration tests
# Assay text: CCRIS mutagenicity studies
# Measurement parameters: Test System: AMES SALMONELLA TYPHIMURIUM; Strain/Indicator: TA100; Metabolic Activation: HAMSTER, LIVER, S-9, AROCLOR 1254 (10%); Method: PREINCUBATION
# Excerpt: The CCRIS database contains chemical records with carcinogenicity, mutagenicity, tumor promotion, and tumor inhibition test results. It was developed by the National Cancer Institute (NCI). Data are derived from studies cited in primary journals, current awareness tools, NCI reports, and other sources. Test results have been reviewed by experts in carcinogenesis and mutagenesis. CCRIS provides historical information from the years 1985 - 2011. It is no longer updated. […]
The source made the active and inactive calls. The rule behind the calls is not given here.
Quantity measured: mutagenic call

Consider the worked cases shown below.
| Compound | mutagenic call |
| --- | --- |
| O=C(Nc1ccc(Cl)cc1)Nc1ccc(Cl)c(Cl)c1 | inactive; negative |
| CCCCCCCC(=O)O | inactive; negative |
| CCN(CC)CC | inactive; negative |
| COc1cc(OC)c(OC)cc1C=O | inactive; negative |

# ---- query compound ----
Prompt: Form field: mutagenic call recorded for "CC(=O)OCCC(C)C" with CCRIS mutagenicity, Ames/micronucleus/aberration tests (enter value)
Completion: inactive; negative
